inhibition reference
# studySystem: geranylgeranyltransferase type-I (Rattus norvegicus) (UniProt P53610+Q04631)
# protocol: Percentage in vitro inhibition of rat protein geranylgeranyltransferase type-I at 100 uM
# Type: protein-complex assay
Unit % implied. Number only.

Study these solved cases before continuing.
CCN(CC)C1=NS(=O)(=O)C(C)=C1c1ccc(OC)cc1 ... 56
CCN(CC)C1=NS(=O)(=O)C(c2ccccc2)=C1c1ccc(OC)cc1 ... 26
CCN(CC)C1=NS(=O)(=O)C(SC/C=C(\C)CC/C=C(/C)CCC=C(C)C)=C1c1ccc(OC)cc1 ... 28
CCN(CC)C1=NS(=O)(=O)C(SC)=C1c1ccc(OC)cc1 ... 36

Now for the compound whose inhibition we want.
(Q) Suppose we examine the compound CCN(CC)C1=NS(=O)(=O)C(c2cn(S(=O)(=O)c3ccccc3)c3ccccc23)=C1c1ccc(OC)cc1 ; what inhibition value has been reported?
(A) 25

----------
# System: Protein farnesyltransferase (Trypanosoma brucei)
# protocol: Percentage in vitro inhibition of recombinant Trypanosoma brucei protein farnesyltransferase at 100 uM
measurementType: inhibition (%)
Unit % implied. Number only.

Study these solved cases before continuing.
CCN(CC)C1=NS(=O)(=O)C(C)=C1c1ccc(OC)cc1 ... 43
CCN(CC)C1=NS(=O)(=O)C(c2cn(S(=O)(=O)c3ccccc3)c3ccccc23)=C1c1ccc(OC)cc1 ... 29
CCN(CC)C1=NS(=O)(=O)C(c2ccccn2)=C1c1ccc(OC)cc1 ... 12
CCN(CC)C1=NS(=O)(=O)C(SC2CCCCC2)=C1c1ccc(OC)cc1 ... 52

(Q) Please state recorded inhibition (tested on Protein farnesyltransferase (Trypanosoma brucei)) of CCN(CC)C1=NS(=O)(=O)C(SC)=C1c1ccc(OC)cc1
(A) 7
